All values here come from a melting point compilation (Tetko et al.; mined from patent text by program, amines drawn as free bases though some values may be those of a salt).

Item-by-item account of melting point

# melting point (compound: COc1cc(C(=O)O)c(OC)c2c1C(C)(C)CCC2(C)C ) is 187 °C

# melting point (compound: C=CCNc1nc(NCC)nc2ccc([N+](=O)[O-])cc12 ) is 227 to 228 °C

# melting point (compound: CC(O)Cc1c2ccccc2cc2ccccc12 (configuration not stated) ) is 105 to 107 °C

# melting point (compound: CCOCCOC(=O)C(=O)Nc1nc(-c2cc3ccc(O)cc3oc2=O)cs1 ) is 217 to 218 °C

# melting point (compound: CCCCn1c(CC)ccc1Cc1cccc(NC(N)=O)c1 ) is 103 to 106 °C

# melting point (compound: CCOC(=O)N1C(=O)C(C)(C)c2cc(C3=NNC(=O)SC3C)ccc21 (configuration not stated) ) is 246 °C

# melting point (compound: Cc1ccc(C(Cn2cncn2)c2ccccc2)cc1 (configuration not stated) ) is 98 to 100 °C

# melting point (compound: CCCCCCCOc1ccc(C(=O)Cl)cc1OCCCCCCC ) is 57 to 58 °C

# melting point (compound: O=S(=O)(CC(Cl)C(F)=C(F)F)c1ccccc1 (configuration not stated) ) is 45 to 47 °C

# melting point (compound: Cc1ccc(Nc2nc(C)cs2)nc1 ) is 212 to 214 °C

# melting point (compound: CSC1=NC(C)(C)SC1=NO ) is 168 to 171 °C

# melting point (compound: CC1Cn2c(=O)[nH]c3cccc(c32)CN1Cc1ccccc1 (configuration not stated) ) is 205 °C

---

measured-quantity: melting point

Some molecules with known melting point results, for comparison:
COc1cc2ncnc(N3CCC(C(C)(O)COS(=O)(=O)c4ccc(C)cc4)CC3)c2cc1OC (centres undefined)
120 to 124 °C
COC(=O)C(CC(F)(F)F)Nc1nc(-c2ccc(Br)cc2)cs1 (centres undefined)
113 to 114 °C
O=C(Oc1ccc([N+](=O)[O-])cc1)C(O)C(O)C(=O)Oc1ccc([N+](=O)[O-])cc1 (centres undefined)
163 to 164 °C
CCCCN(CCCC)c1ccc(C2(c3cc(Nc4ccccc4)ccc3OC)OC(=O)c3ccccc32)c(O)c1 (centres undefined)
148 to 152 °C
Nc1nc(NCCN2CCCCC2)nc(-c2cc(Cl)ccc2Cl)n1
179 to 181 °C

# melting point (molecule: O=C(NC1CCN(CCC(O)c2ccc3c(c2)OCCO3)CC1)c1ccccc1 (centres undefined) ) is 193 to 197 °C

# melting point (molecule: CCCCn1nc(C(F)(F)CCC)nc1Cc1ccc(-c2ccccc2-c2nnn[nH]2)nc1 ) is 135 to 136 °C

# melting point (molecule: CS(=O)(=O)c1ccc(-c2cc(C#N)sc2-c2ccc(F)cc2)cc1 ) is 139 to 140 °C

# melting point (molecule: O=C(COc1cccc(CCNS(=O)(=O)c2ccc(Br)cc2)c1)Nc1nnn[nH]1 ) is 205 to 206 °C

---

Item-by-item account of melting point

COc1ccc(-c2nc(=O)c3ccccc3o2)cc1
175 to 178 °C
N#Cc1ccc2[nH]cc(C=C[N+](=O)[O-])c2c1
217 to 220 °C
Cc1ccc(Cl)c2sc(O)nc12
266 °C
CCC(Cc1ccc(OCCN2CCCCC2)cc1)(C(=O)NO)S(=O)(=O)c1ccc(OC)cc1 (stereo not given)
75 °C
O=C(OO)c1cccc(Cl)c1
127 to 129 °C

# melting point (compound: CCN1CCN(Cc2cc(C)c3c(c2)-c2[nH]nc(-c4ccsc4)c2C3)CC1 ) is 230 to 231 °C

# melting point (compound: N#Cc1nc2ccc(Cl)cc2c2c1ncn2-c1ccccc1Cl ) is 248 to 250 °C

# melting point (compound: Cc1cccc(NC(=O)NC2N=C(C3CC3)c3cccc(C)c3N(CC(=O)N3CCCCCCC3)C2=O)c1 (stereo not given) ) is 178 to 179 °C

# melting point (compound: COc1cc2c(cc1OC)CN(CCCc1ccc(NC(=O)c3cc(OC)c4ccccc4n3)cc1)CC2 ) is 123 to 125 °C

# melting point (compound: CCCCN1Nn2c(c3ncnc-3c3cccnc32)N1CC(C)C ) is 182 to 184 °C
